Data provenance is patent US20250042894A1.

Examples of compounds with documented pIC50 follow.
- target under test: His tagged PTPN2 (TC45) protein (Homo sapiens)
- Construct: His; made in house
- Sequence (P17706 1-387 isoform P17706-2): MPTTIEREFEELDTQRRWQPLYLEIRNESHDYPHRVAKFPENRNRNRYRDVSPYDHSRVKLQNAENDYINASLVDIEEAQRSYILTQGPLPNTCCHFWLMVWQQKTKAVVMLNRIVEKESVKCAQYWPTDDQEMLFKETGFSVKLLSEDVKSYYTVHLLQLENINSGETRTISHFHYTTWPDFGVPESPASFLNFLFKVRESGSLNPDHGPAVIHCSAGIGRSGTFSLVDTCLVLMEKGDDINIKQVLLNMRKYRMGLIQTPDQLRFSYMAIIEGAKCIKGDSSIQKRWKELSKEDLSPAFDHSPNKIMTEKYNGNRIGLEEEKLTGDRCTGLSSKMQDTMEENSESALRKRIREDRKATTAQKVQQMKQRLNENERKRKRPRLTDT
- protocol: Mobility Shift Assay (MSA) for PTPN2 inhibitors
- Assay type: biochemical
- condition info: enzyme 0.5 nM, substrate 2 μM, 10 minutes preincubation at room temperature
pIC50: −log10 of the molar value.
outcome measure: pIC50

>  <compound>
CC(C)C(C)CN[C@@H]1CSc2cc(O)c(N3CC(=O)NS3(=O)=O)c(F)c2C1 (stereo partly shown)

>  <outcome measure>
pIC50

>  <reported result>
> 8.00

$$$$
>  <compound>
CC(C)CCN[C@@H]1CSc2cc(O)c(N3CC(=O)NS3(=O)=O)c(F)c2C1

>  <outcome measure>
pIC50

>  <reported result>
> 8.00

$$$$
>  <compound>
CC(C)(C)OC(=O)N1CCC(CN[C@@H]2CSc3cc(O)c(N4CC(=O)NS4(=O)=O)c(F)c3C2)CC1

>  <outcome measure>
pIC50

>  <reported result>
7.00 to 8.00

$$$$
>  <compound>
COCCCN[C@@H]1CSc2cc(O)c(N3CC(=O)NS3(=O)=O)c(F)c2C1

>  <outcome measure>
pIC50

>  <reported result>
7.00 to 8.00

$$$$
>  <compound>
O=C1CN(c2c(O)cc3c(c2F)C[C@H](NCCC2CCCCC2)CS3)S(=O)(=O)N1

>  <outcome measure>
pIC50

>  <reported result>
> 8.00

$$$$
>  <compound>
O=C1CN(c2c(O)cc3c(c2F)C[C@H](NCCC2CCOCC2)CS3)S(=O)(=O)N1

>  <outcome measure>
pIC50

>  <reported result>
> 8.00

$$$$
>  <compound>
O=C1CN(c2c(O)cc3c(c2F)C[C@H](NCCc2ccccc2)CS3)S(=O)(=O)N1

>  <outcome measure>
pIC50

>  <reported result>
> 8.00

$$$$
>  <compound>
CC1(CN[C@@H]2CSc3cc(O)c(N4CC(=O)NS4(=O)=O)c(F)c3C2)COC1

>  <outcome measure>
pIC50

>  <reported result>
7.00 to 8.00

$$$$
>  <compound>
O=C1CN(c2c(O)cc3c(c2F)C[C@H](NCC2CC2(F)F)CS3)S(=O)(=O)N1 (stereo partly shown)

>  <outcome measure>
pIC50

>  <reported result>
7.00 to 8.00

$$$$
>  <compound>
CC1(CCN[C@@H]2CSc3cc(O)c(N4CC(=O)NS4(=O)=O)c(F)c3C2)CC1

>  <outcome measure>
pIC50

>  <reported result>
> 8.00

$$$$
>  <compound>
O=C1CN(c2c(O)cc3c(c2F)C[C@H](NCC2C4CCCC42)CS3)S(=O)(=O)N1 (mixture of isomers)

>  <outcome measure>
pIC50

>  <reported result>
7.00 to 8.00

$$$$
>  <compound>
CC(F)(F)CCCN[C@@H]1CSc2cc(O)c(N3CC(=O)NS3(=O)=O)c(F)c2C1

>  <outcome measure>
pIC50

>  <reported result>
> 8.00

$$$$
>  <compound>
O=C1CN(c2c(O)cc3c(c2F)C[C@H](NCC2CC2)CS3)S(=O)(=O)N1

>  <outcome measure>
pIC50

>  <reported result>
7.00 to 8.00

$$$$
>  <compound>
CC(CCN[C@@H]1CSc2cc(O)c(N3CC(=O)NS3(=O)=O)c(F)c2C1)c1ccccc1 (stereo partly shown)

>  <outcome measure>
pIC50

>  <reported result>
> 8.00

$$$$
>  <compound>
O=C1CN(c2c(O)cc3c(c2F)C[C@H](NCc2ccccc2)CS3)S(=O)(=O)N1

>  <outcome measure>
pIC50

>  <reported result>
7.00 to 8.00

$$$$
>  <compound>
O=C1CN(c2c(O)cc3c(c2F)C[C@H](NCC2CCOCC2)CS3)S(=O)(=O)N1

>  <outcome measure>
pIC50

>  <reported result>
7.00 to 8.00

$$$$
